molecular target: Nuclear receptor coactivator 1 (Homo sapiens); experiment: SRC1 coactivator transcriptional activity inhibitors, confirmation, cell-based, luminescence, quadruplicate (AID 588820); details: HEK293 GAL4-SRC1 luciferase reporter, at 3.6 µM, hits give high values;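 further: 0% = DMSO wells and 100% = gossypol 36 µM treated wells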
inhibition values, listed per item
# value in %; strip the unit string

The following molecules have reported results that may help.
CCN1/C(=C/C=C/c2oc3ccc(-c4ccccc4)cc3[n+]2CC)Oc2ccc(-c3ccccc3)cc21	71.9
COc1ccc(CC(=O)Nc2cccc(S(=O)(=O)N3CCCCCC3)c2)cc1OC	-18.9

Suppose we examine the molecule C/C(=N\Nc1ncnc2sc(C)c(C)c12)c1ccccn1 ; what inhibition value has been reported? 18.5

And then O=C(Nc1scc(-c2ccc(Br)cc2)c1C(=O)O)c1ccccc1F , what is it? -17.2

And then CC(C)(C)c1ccc(C(=O)Nc2sc3c(c2C(=O)O)CCC3)cc1 , what is it? 42.3

And then Cc1ccc(C)c(N2CCN(C(=O)CCS(=O)(=O)c3ccc4c(c3)NC(=O)CO4)CC2)c1 , what is it? -0.57

And then COc1ccccc1-n1nnnc1SC(C)C(=O)NC1CCCC1 (stereo not given) , what is it? -17.1

And then COC(=O)c1cccc2c1-c1ccccc1/C2=N/O , what is it? 34.5

And then CC(C)=CCCC(C)CN1CCC(n2nccc2NC(=O)c2ccccc2)CC1 (stereo not given) , what is it? -6.47

And then Cc1cccc(NC(=O)C2CCN(S(=O)(=O)c3ccc4c(c3)OCCCO4)CC2)n1 , what is it? -23.6

And then CCOC(=O)Cc1csc(SCC(=O)c2c(N)n(CC(C)C)c(=O)n(C)c2=O)n1 , what is it? -7.3

---

assay: VP16 transactivation reporter inhibitors, counter-screen for LRH-1 inverse agonist project, cell-based, luminescence, high throughput (AID 651615); conditions: Gal4-VP16 luciferase reporter cells, at 3.6 µM
Calls of active or inactive are those of the source. Cut-off read from the data, not from the text of the source: active = inhibition above about 33%; inactive = the rest.
The reply should name one outcome from active, inactive

Some solved cases for reference:
COc1cc(N)c2ncccc2c1Cl	inactive
Cc1cc(C(=O)COC(=O)c2ccccc2O)c(C)n1Cc1cccs1	active
Cn1c(CCNC(=O)c2cccs2)nnc1SCC(=O)N1CCN(c2ccccc2)CC1	inactive

Would you mind telling me which call this test gave COc1ccc(CCn2c(C)cc(C(=O)COC(=O)c3ccc(O)cc3O)c2C)cc1 ? inactive

And then CC1(C)CC(=O)C=C(c2ccc3ncccc3c2)C1 , what is it? inactive

---

biological target: Photoreceptor-specific nuclear receptor (Homo sapiens); assay: NR2E3 agonists, confirmation, biochemical, TR-FRET (AID 2379); conditions: cell-free NR2E3 corepressor release, 5 h, at 3.98 µM, hits give high values
The list shows a part of the results. The source made the active and inactive calls. Rule as the data show it: active = activation above about 20%; inactive = the rest.
Parameter measured: activation (reported as inhibition)

Form entry - test system: Photoreceptor-specific nuclear receptor (Homo sapiens); read-out: activation (reported as inhibition); molecule: N#Cc1c(N)nc2c3c(sc(=N)c2c1N)NC(=O)CC3c1ccccc1Cl (stereo not drawn) -9.26% (inactive)

And then COCCNC(=O)Nc1ccc2nc(-c3ccco3)c(-c3ccco3)nc2c1 , what is it? -0.99% (inactive)

And then CC(C)c1ccc(C2C(C(=O)c3ccco3)=C(O)C(=O)N2CC2CCCO2)cc1 (stereo not drawn) , what is it? -0.08% (inactive)
